test system: MCF10A; assay: nucleolar rRNA biogenesis percent inhibition (5-EU; siNT 0%, siPOLR1A 100%); higher = stronger inhibition of nucleolar rRNA biogenesis; details: 20 nM; 72 h
Exercise: for every item that follows, state its recorded nucleolar rRNA biogenesis percent inhibition.
Numbers only, in %.

Below: 5 sequences and their reported nucleolar rRNA biogenesis percent inhibition.
SEQUENCE CHAIN	MEASURE UNIT	TEST VALUE
GUGUGUGGAAAUGCUUCUGC [hsa-miR-147a]	%	61.8
GAGGGCGGGUGGAGGAGGA [hsa-miR-3141]	%	51.1
AGAAGGCACUAUGAGAUUUAGA [hsa-miR-605-3p]	%	65
GAGCAAUGUAGGUAGACUGUUU [hsa-miR-3908]	%	7.34
AGGUAUUGCCACCCUUUCUAGU [hsa-miR-5681b]	%	66

As a next step, examine the sequence that follows.
Reported nucleolar rRNA biogenesis percent inhibition of GAGGGCAUGCGCACUUUGUCC [hsa-miR-4761-3p] : 76

----------
tested on: MCF10A; test: percent viability (nuclei count relative to siNT); higher = more viable cells; conditions: 20 nM; 72 h
PROPERTY LABEL: percent viability (%)
Numbers only, in %.

Look over these answered cases.
SEQUENCE CHAIN	TEST VALUE
AGAGAUGAAGCGGGGGGGCG [hsa-miR-6088]	91.6
AGAGGUUAUCCGUGUUAUGUUC [hsa-miR-655-5p]	32.4
CAAAGAGGAAGGUCCCAUUAC [hsa-miR-583]	69.2
GAUGCGCCGCCCACUGCCCCGCGC [hsa-miR-4787-3p]	76.2
AACUAGUAAUGUUGGAUUAGGG [hsa-miR-3923]	21.9

Please state, for each entry, its recorded percent viability.
1. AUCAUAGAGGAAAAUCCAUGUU [hsa-miR-376b-3p]
2. AUGAGCGACUGUGCCUGACC [hsa-miR-5708]

1. 144
2. 47.3

----------
test system: MCF10A; experiment: percent viability (nuclei count relative to siNT); higher = more viable cells; conditions: 20 nM; 72 h
For each of the sequences below, state its percent viability.
One number for each entry, in %.

Solved cases (3 shown):
SEQUENCE CHAIN	percent viability (%)
AAAGUCUCGCUCUCUGCCCCUCA [hsa-miR-3184-3p]	172
GAGGUUUGGGGAGGAUUUGCU [hsa-miR-4748]	24.1
CACCUCUCCUGGCAUCGCCCC [hsa-miR-6800-3p]	128

Data point: UGCUUAAGUUGUACCAAGUAU [hsa-miR-4720-3p] ; percent viability = 53.4

----------
test system: MCF10A; assay: one-nucleolus phenotype percent effect (relative to siNT 0% and siNOL11 100%); higher = more cells with one nucleolus (ribosome biogenesis inhibition); conditions: 20 nM; 72 h
Ranges used to classify one-nucleolus phenotype percent effect: lowest = under -10%, middle = from -10% up to 10%, highest = 10% and over

SEQUENCE CHAIN	SYSTEM TESTED	LABEL VALUE
AUGAGCGACUGUGCCUGACC [hsa-miR-5708]	MCF10A	highest
CAAAGCGCUUCUCUUUAGAGUGU [hsa-miR-518c-3p]	MCF10A	highest
AAGGAGCUUACAAUCUAGCUGGG [hsa-miR-708-5p]	MCF10A	highest
UCUCACCCCAACUCUGCCCCAG [hsa-miR-6784-3p]	MCF10A	lowest
UCAGAACAAAUGCCGGUUCCCAGA [hsa-miR-589-3p]	MCF10A	lowest

Just checking, what class would you give CUCUAGAGGGAAGCGCUUUCUG [hsa-miR-519a-5p] here?
lowest

The entry to classify is UCACUCCUCUCCUCCCGUCUU [hsa-miR-483-3p] ; which class holds it?
highest

In plain terms, what class is AAGGGAGGAGGAGCGGAGGGGCCCU [hsa-miR-4739] ?
highest

Category of AUCCUCUCUUCCCUCCUCCCAG [hsa-miR-7111-3p] , please.
middle
